Test system: Staphylococcus aureus
Assay comment: In vitro minimum inhibitory concentration against Staphylococcus aureus 209p
Format: functional
Property label: MIC (µg/mL)

INSERT INTO results (smiles_representation, result_number) VALUES
  ('C[C@@H](O)[C@H]1C(=O)N2C(C(=O)O)=C(Sc3nc4ccccc4s3)[C@H](C)[C@H]12', 0.025),
  ('CCCc1csc(SC2=C(C(=O)O)N3C(=O)[C@H]([C@@H](C)O)[C@H]3[C@H]2C)n1', 0.025);

---

Study system: Albumin (Homo sapiens)
Assay comment: Binding affinity towards Human Serum albumin.
Property label: Binding (%)

INSERT INTO measurements (smiles_representation, property_label, result_number) VALUES
  ('C[C@@H](O)[C@H]1C(=O)N2C(C(=O)O)=C(Sc3nccs3)[C@H](C)[C@H]12', 'Binding', 69);

(I) C[C@@H](O)[C@H]1C(=O)N2C(C(=O)[O-])=C(Sc3nc(-c4ccc5cc[n+](C)cc5c4)cs3)[C@H](C)[C@H]12
(II) C[C@@H](O)[C@H]1C(=O)N2C(C(=O)[O-])=C(Sc3nc(-c4ccc[n+](C)c4)cs3)[C@H](C)[C@H]12
(III) C[C@@H](O)[C@H]1C(=O)N2C(C(=O)O)=C(Sc3nc(-c4ccc(C(N)=O)cc4)cs3)[C@H](C)[C@H]12
(IV) C[C@@H](O)[C@H]1C(=O)N2C(C(=O)[O-])=C(Sc3nc(-c4cc[n+](CC(N)=O)cc4)cs3)[C@H](C)[C@H]12
(V) C[C@@H](O)[C@H]1C(=O)N2C(C(=O)[O-])=C(Sc3nc(-c4ccc[n+](CC(N)=O)c4)cs3)[C@H](C)[C@H]12
List these items ordered by Binding, big to small. Please, when replying, give the labels in the order that was requested. III, I, V, IV, II
(III: 99%, I: 59%, V: 24%, IV: 15%, II: 7.8%)

---

Study system: Albumin (Homo sapiens, UniProt P02768)
Sequence (P02768 whole entry): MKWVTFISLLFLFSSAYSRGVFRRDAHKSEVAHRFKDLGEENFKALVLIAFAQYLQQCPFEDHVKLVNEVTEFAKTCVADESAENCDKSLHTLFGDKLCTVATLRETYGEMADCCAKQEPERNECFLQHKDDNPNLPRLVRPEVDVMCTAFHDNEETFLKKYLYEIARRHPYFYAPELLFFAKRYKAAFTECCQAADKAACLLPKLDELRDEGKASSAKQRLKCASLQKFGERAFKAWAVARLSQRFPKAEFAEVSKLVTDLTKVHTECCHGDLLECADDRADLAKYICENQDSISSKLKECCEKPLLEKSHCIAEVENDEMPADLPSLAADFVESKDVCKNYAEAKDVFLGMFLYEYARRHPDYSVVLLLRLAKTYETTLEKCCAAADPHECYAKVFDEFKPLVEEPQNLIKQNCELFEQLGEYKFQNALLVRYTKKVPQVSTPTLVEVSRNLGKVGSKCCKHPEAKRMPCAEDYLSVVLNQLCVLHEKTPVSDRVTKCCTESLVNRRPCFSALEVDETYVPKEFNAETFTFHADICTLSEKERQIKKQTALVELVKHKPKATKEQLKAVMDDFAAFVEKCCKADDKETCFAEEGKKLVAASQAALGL
Assay comment: Binding affinity towards Human Serum albumin.
Property label: Binding (%)

Here's what some known entries look like.
INSERT INTO assay_data (smiles_representation, property_label, value_units, result_number) VALUES
  ('C[C@@H](O)[C@H]1C(=O)N2C(C(=O)O)=C(Sc3nc(-c4ccc5ccncc5c4)cs3)[C@H](C)[C@H]12', 'Binding', '%', 99),
  ('C[C@@H](O)[C@H]1C(=O)N2C(C(=O)O)=C(Sc3nc(-c4cccnc4)cs3)[C@H](C)[C@H]12', 'Binding', '%', 97);

(A) C[C@@H](O)[C@H]1C(=O)N2C(C(=O)[O-])=C(Sc3nc(-c4cc[n+](C)cc4)cs3)[C@H](C)[C@H]12
(B) C[C@@H](O)[C@H]1C(=O)N2C(C(=O)O)=C(Sc3nc(-c4ccc(N)cc4)cs3)[C@H](C)[C@H]12
// compare measured Binding, left A , right B , return larger Label of pick, please. B
(B: 98%, A: 12%)

---

Study system: Dipeptidase 1 (Sus scrofa)
Assay comment: Time of enzyme-catalyzed hydrolysis from 500 uM to 400 uM in the presence of purified renal DHP-1 of swine
Property label: TIME (h)

INSERT INTO results (smiles_representation, study_system, property_label, result_number) VALUES
  ('C[C@@H](O)[C@H]1C(=O)N2C(C(=O)[O-])=C(Sc3nc(-c4ccc5cc[n+](C)cc5c4)cs3)[C@H](C)[C@H]12', 'Dipeptidase 1 (Sus scrofa)', 'TIME', 0.2),
  ('C[C@@H](O)[C@H]1C(=O)N2C(C(=O)O)=C(Sc3nc(-c4ccc(C(N)=O)cc4)cs3)[C@H](C)[C@H]12', 'Dipeptidase 1 (Sus scrofa)', 'TIME', 0.2);

(A) C[C@@H](O)[C@H]1C(=O)N2C(C(=O)O)=C(Sc3nc(-c4ccccc4)cs3)[C@H](C)[C@H]12
(B) C[C@@H](O)[C@H]1C(=O)N2C(C(=O)[O-])=C(Sc3nc(-c4cc[n+](C)cc4)cs3)[C@H](C)[C@H]12
// compare measured TIME, left A , right B , return larger Label of pick, please. B
